# System: SK-MEL-28 melanoma
# test_protocol: NCI tumour cell line growth inhibition, 48 h
Classify as follows. Reported TGI greater than or equal to 30 µM: yes. Reported TGI below: no.

>>> cat("S=C(N/N=C/c1ccccn1)Nc1ccccn1")
"yes"

Is reported TGI greater than or equal to 30 µM here: O=C(NC(=S)Nc1ccc(Cl)cc1)c1ccccc1
yes

Is reported TGI greater than or equal to 30 µM here: COc1ccc(OC)c2nc3c(C(=O)NCCN(C)C)cccc3nc12
no

Is reported TGI greater than or equal to 30 µM here: c1ccc2sc(C3(N4CCCCC4)CCCC3)cc2c1
no

Is reported TGI greater than or equal to 30 µM here: COC(=O)c1c(C(=O)OC)c2cc(C(=O)c3ccccc3)ccn2c1Cl
yes

Is reported TGI greater than or equal to 30 µM here: COc1cccc(-c2nc3c(C(=O)NCCN(C)C)cccc3[nH]2)c1
yes

Is reported TGI greater than or equal to 30 µM here: CCOC(=O)n1cncc1CC(NC(=O)Cc1c(C(=O)C=C(C)C)[nH]c2ccccc12)C(=O)OC (centres undefined)
yes

Is reported TGI greater than or equal to 30 µM here: N.N.NC(CS)C(=O)[O-].NC(CS)C(=O)[O-].[Pt+4] (centres undefined)
yes

Is reported TGI greater than or equal to 30 µM here: CC(=O)O[C@H]1C(=O)[C@@]2(C)[C@H]([C@H](OC(=O)C3CCCCC3)[C@]3(O)C[C@H](OC(=O)[C@H](O)[C@@H](NC(=O)C4CCCCC4)C4CCCCC4)C(C)=C1C3(C)C)[C@]1(OC(C)=O)CO[C@@H]1C[C@@H]2O
no

Is reported TGI greater than or equal to 30 µM here: C=C[C@H]1CN2CCc3c([nH]c4c([C@H]5CCCN5C)c(O)ccc34)[C@@H]2C[C@@H]1C[C@H]1c2[nH]c3ccccc3c2CCN1C
no

Is reported TGI greater than or equal to 30 µM here: COC(=O)C1=CC[C@@H]2C(C(=O)O)=CO[C@@H](OC3OC(CO)C(O)C(O)C3O)[C@H]12 (some centres undefined)
yes

Is reported TGI greater than or equal to 30 µM here: CCCCCCCCCCCCCCCCP(=O)(O)OP(=O)(O)OCC1OC(n2cnc3c(N)ncnc32)C(O)C1O (centres undefined)
yes

Is reported TGI greater than or equal to 30 µM here: COc1c(O)ccc2c1CN1CCc3cc4c(cc3C1C2)OCO4 (centres undefined)
yes

Is reported TGI greater than or equal to 30 µM here: Fc1ccc(-c2ccc(-c3nnc(-c4cc(F)c(Cl)cc4Cl)o3)o2)cc1Cl
yes

Is reported TGI greater than or equal to 30 µM here: O=C(O)C1CC(c2ccccc2)=NN1c1ccccc1 (centres undefined)
yes

Is reported TGI greater than or equal to 30 µM here: O=C(Nc1nc(C23CC4CC(CC(C4)C2)C3)cs1)c1cc2cc(Br)cc(Br)c2oc1=O
yes
